Values compiled from PubChem BioAssay AID2596.

TARGET_OR_SYSTEM: Lysosomal acid glucosylceramidase (Homo sapiens)
ASSAY_SUMMARY: qHTS Assay for Inhibitors and Activators of N370S glucocerebrosidase as a Potential Chaperone Treatment of Gaucher Disease: Purified N370S Glucocerebrosidase Cleavage of Glucosylceramide
PARTICULARS: purified N370S GCase; series mostly up to 77.6 µM
Records with an inconclusive call do not appear. Active and inactive are the calls of the source. Calls come from the whole dose curve; as a rule, active = well fitted inhibition curve with a large enough effect; inconclusive = small, poorly fitted or top-dose-only effect, or effect the other way; inactive = flat fitted curve, though single readings scatter.
I would appreciate it if you answered using one of these outcomes: Yes (active), No (inactive)

compound="CC1(C)CC(=O)C2=C(C1)c1c(ccc3ccccc13)NC2c1ccc(Br)o1 (configuration not stated)" assigned_label=No
compound=S=C(NCCCc1cnc[nH]1)NCCCN(Cc1ccc(Cl)c(Cl)c1)c1ccc(Br)cn1 assigned_label=Yes
compound=COc1ccccc1OCC(=O)Nc1oc(-c2ccccc2)c(-c2ccccc2)c1C#N assigned_label=No

Please state the recorded outcome for this compound: O=S(=O)(c1ccc(Cl)cc1)N1CCN(c2nc(-c3cccs3)nc3ccccc23)CC1
No
